# STUDY_SYSTEM: monoamine oxidase (type A enzyme, tryptamine substrate) (Rattus norvegicus, UniProt P21396)
# Sequence (P21396 1-526): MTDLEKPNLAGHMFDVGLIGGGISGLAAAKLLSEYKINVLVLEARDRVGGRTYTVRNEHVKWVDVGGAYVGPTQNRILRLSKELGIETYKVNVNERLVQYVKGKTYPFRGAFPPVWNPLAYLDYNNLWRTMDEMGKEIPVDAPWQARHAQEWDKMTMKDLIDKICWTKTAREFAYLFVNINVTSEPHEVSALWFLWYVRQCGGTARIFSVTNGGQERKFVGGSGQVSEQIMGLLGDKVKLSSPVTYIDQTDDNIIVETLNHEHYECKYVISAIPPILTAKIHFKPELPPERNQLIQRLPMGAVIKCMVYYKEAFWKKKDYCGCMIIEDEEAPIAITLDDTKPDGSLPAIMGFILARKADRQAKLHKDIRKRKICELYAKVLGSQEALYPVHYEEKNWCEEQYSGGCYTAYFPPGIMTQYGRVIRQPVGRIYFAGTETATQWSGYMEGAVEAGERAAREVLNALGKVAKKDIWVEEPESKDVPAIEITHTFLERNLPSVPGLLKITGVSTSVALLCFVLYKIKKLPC
pIC50: −log10 of the molar value.
Given measured pIC50, output met if it is greater than or equal to 7 and not met if not.

# SMI, ASSIGNED_LABEL
data = [
    ("CCNc1cccc2c1SC1=NCCN12", "met"),
    ("c1c2c(cc3c1SC1=NCCN13)CCC2", "met"),
    ("CC(C)Nc1ccc2c(c1)N1CCN=C1S2", "met"),
    ("C#CCNc1ccc2c(c1)SC1=NCCN12", "not met"),
    ("Cc1cccc2c1N1CCN=C1S2", "not met"),
]

----------
Target protein (sequence): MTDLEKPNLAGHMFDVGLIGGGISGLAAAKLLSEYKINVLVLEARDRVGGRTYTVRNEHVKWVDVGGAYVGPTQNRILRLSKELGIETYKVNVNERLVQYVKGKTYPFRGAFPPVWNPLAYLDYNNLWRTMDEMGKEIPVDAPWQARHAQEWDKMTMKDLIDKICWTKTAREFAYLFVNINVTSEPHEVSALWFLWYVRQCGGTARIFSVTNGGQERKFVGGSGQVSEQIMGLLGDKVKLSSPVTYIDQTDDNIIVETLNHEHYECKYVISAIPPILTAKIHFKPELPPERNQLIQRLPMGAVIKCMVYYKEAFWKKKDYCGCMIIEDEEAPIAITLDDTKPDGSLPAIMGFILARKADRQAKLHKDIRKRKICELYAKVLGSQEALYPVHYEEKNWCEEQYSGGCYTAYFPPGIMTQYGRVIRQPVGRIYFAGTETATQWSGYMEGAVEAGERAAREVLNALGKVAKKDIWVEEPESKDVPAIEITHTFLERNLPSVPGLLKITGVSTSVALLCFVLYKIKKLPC
pIC50: −log10 of the molar value.
Given measured pIC50, output 1 (yes) if it is greater than or equal to 7 and 0 (no) if not.

# COMPOUND, ASSIGNED_LABEL
rows = [
    ("NC(=O)Nc1ccc2c(c1)N1CCN=C1S2 [Example 6-NHCONH2]", "0 (no)"),
    ("CCCN(C=C(C(=O)OCC)C(=O)OCC)c1ccc2c(c1)SC1=NCCN12 [7-N(C3 H7)CHC(COOEt)2]", "0 (no)"),
    ("CC(=O)Nc1ccc2c(c1)N1CCN=C1S2 [Example 6-NHCOCH3]", "0 (no)"),
    ("c1cc2c(cc1C1CCCCC1)SC1=NCCN12 [7-c . C6 H 11]", "1 (yes)"),
    ("CCOC(=O)C(=CNc1ccc2c(c1)SC1=NCCN12)C(=O)OCC [7-NHCHC(COOEt)2]", "0 (no)"),
    ("c1ccc2c3c(ccc2c1)SC1=NCCN13 [5,6-(CHCHCHCH)]", "1 (yes)"),
]
